Target: HCV NS5B (Hepatitis C virus genotype 1b, UniProt Q9WMX2)
Construct: The protein was expressed with an 18 amino acid C-terminal truncation to enhance the solubility
Sequence (Q9WMX2 2420-2992): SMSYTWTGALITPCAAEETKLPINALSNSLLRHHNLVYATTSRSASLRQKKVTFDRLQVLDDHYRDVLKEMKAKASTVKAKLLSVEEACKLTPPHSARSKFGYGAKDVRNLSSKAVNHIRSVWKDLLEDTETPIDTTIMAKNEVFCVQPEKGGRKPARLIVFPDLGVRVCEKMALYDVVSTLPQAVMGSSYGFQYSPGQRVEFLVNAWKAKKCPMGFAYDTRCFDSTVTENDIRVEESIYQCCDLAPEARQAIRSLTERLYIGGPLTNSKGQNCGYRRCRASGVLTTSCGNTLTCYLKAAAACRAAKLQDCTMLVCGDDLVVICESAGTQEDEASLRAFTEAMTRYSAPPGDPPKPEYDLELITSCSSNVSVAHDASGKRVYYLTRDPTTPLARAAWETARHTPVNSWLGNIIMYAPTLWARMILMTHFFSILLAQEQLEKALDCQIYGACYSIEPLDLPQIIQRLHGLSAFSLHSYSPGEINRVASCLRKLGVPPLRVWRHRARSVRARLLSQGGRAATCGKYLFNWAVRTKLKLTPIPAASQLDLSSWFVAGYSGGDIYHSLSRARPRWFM
Assay: Modified HCV NS5B RdRp enzyme assay (preincubation protocol)
Conditions: HCV NS5B RdRp genotype 1b
pIC50: −log10 of the molar value.
READOUT_TYPE: pIC50

Below: 3 molecules and their reported pIC50.
• COC(=O)C12CC1c1cc(OC)ccc1-c1c(C3CCCCC3)c3ccc(C(=O)NS(N)(=O)=O)cc3n1C2 (stereo not shown) = 6.00 to 7.01
• COc1ccc2c(c1)C1CC1(C(=O)N1CCCN(C)CC1)Cn1c-2c(C2CCCCC2)c2ccc(C(=O)NS(=O)(=O)C(C)C)cc21 (stereo not shown) = 6.00 to 7.01
• COc1ccc2c(c1)C1CC1(C(=O)N1CCN(c3ccccn3)CC1)Cn1c-2c(C2CCCCC2)c2ccc(C(=O)NS(=O)(=O)C3CC3)cc21 (stereo not shown) = 6.00 to 7.01

# input for lookup
Query :: Query (molecule): COC(=O)c1ccc2c(C3CCCCC3)c3n(c2c1)CC1(C(=O)OC)CC1c1c(OC(F)(F)F)cccc1-3 (stereo not shown) ; field requested: pIC50
Result :: < 5.00

Reference source: patent EP2121694B1
